Experiment: Permeability of the compound across human Caco2 cells
Assay type: ADME, cell-based
Conditions: Caco-2, read-out: permeability
measure name: Papp (×10⁻⁶ cm/s)

C=CCNC(=O)[C@@H](NC(=O)[C@@](O)(CCCN(Cc1ccc(Br)cc1)NC(=O)[C@@H](NC(=O)OC)C(C)(C)C)Cc1ccc(C=C)cc1)C(C)(C)C :: 45
COC(=O)N[C@H](C(=O)NN(CCC[C@@]1(O)Cc2ccc(cc2)/C=C\CNC(=O)[C@H](C(C)(C)C)NC1=O)Cc1ccc(Br)cc1)C(C)(C)C :: 31
C=CCNC(=O)[C@@H](NC(=O)[C@@](O)(CCCN(Cc1ccc(Br)cc1)NC(=O)[C@@H](NC(=O)OC)C(C)(C)C)Cc1ccc(CC=C)cc1)C(C)(C)C :: 44

* * *

Assay: Permeability of the compound across human Caco2 cells
Assay type: ADME, cell-based
Details: Caco-2, read-out: permeability
measure name: Papp (×10⁻⁶ cm/s)

COC(=O)N[C@H](C(=O)NN(CCC[C@@]1(O)Cc2ccc(cc2)C/C=C\CNC(=O)[C@H](C(C)(C)C)NC1=O)Cc1ccc(Br)cc1)C(C)(C)C :: 10

(A) COC(=O)N[C@H](C(=O)NN(CCC[C@@]1(O)Cc2ccc(cc2)C/C=C\CNC(=O)[C@H](C(C)C)NC1=O)Cc1ccc(Br)cc1)C(C)(C)C
(B) C=CCNC(=O)[C@@H](NC(=O)[C@@](O)(CCCN(Cc1ccc(Br)cc1)NC(=O)[C@@H](NC(=O)OC)C(C)(C)C)Cc1ccc(CC=C)cc1)C(C)C
Input: Hi, I'm comparing two records. Which one has the lower Papp, A or B ? State your choice using its label.
Output: A
(A: 9 ×10⁻⁶ cm/s, B: 44 ×10⁻⁶ cm/s)

* * *

Assay: Cytotoxicity against human MT4 cells after 5 days by XTT assay
Format: cell-based
measure name: CC50 at 120 h (µM)
Reply with just the number (in µM).

C=CCNC(=O)[C@@H](NC(=O)[C@](O)(CCCN(Cc1ccc(Br)cc1)NC(=O)[C@@H](NC(=O)OC)C(C)(C)C)Cc1ccc(C=C)cc1)C(C)(C)C :: 25

Input: Fill blank: measured CC50 at 120 h of the molecule C=CCNC(=O)[C@@H](NC(=O)[C@](O)(CCCN(Cc1ccc(Br)cc1)NC(=O)[C@@H](NC(=O)OC)C(C)(C)C)Cc1ccc(C=C)cc1)C(C)C is ____.
Output: 5.8

Input: Fill in the blank: the reported CC50 at 120 h of C=CCNC(=O)[C@@H](NC(=O)[C@@](O)(CCCN(Cc1ccc(Br)cc1)NC(=O)[C@@H](NC(=O)OC)C(C)(C)C)Cc1ccc(Br)cc1)C(C)(C)C is ____.
Output: 29

* * *

Experiment: Cytotoxicity against human MT4 cells after 5 days by XTT assay
Type: cell-based
measure name: CC50 at 120 h (µM)
Just the number please, in µM, no unit attached.

C=CCNC(=O)[C@@H](NC(=O)[C@@](O)(CCCN(Cc1ccc(Br)cc1)NC(=O)[C@@H](NC(=O)OC)C(C)(C)C)Cc1ccc(C=C)cc1)C(C)(C)C :: 44
C=CCNC(=O)[C@@H](NC(=O)[C@](O)(CCCN(Cc1ccc(Br)cc1)NC(=O)[C@@H](NC(=O)OC)C(C)(C)C)Cc1ccc(Br)cc1)C(C)C :: 4.5
COC(=O)N[C@H](C(=O)NN(CCC[C@@]1(O)Cc2ccc(cc2)C/C=C\CNC(=O)[C@H](C(C)(C)C)NC1=O)Cc1ccc(Br)cc1)C(C)(C)C :: 30
C=CCNC(=O)[C@@H](NC(=O)[C@@](O)(CCCN(Cc1ccc(Br)cc1)NC(=O)[C@@H](NC(=O)OC)C(C)(C)C)Cc1ccc(C=C)cc1)C(C)C :: 25

Input: I would be grateful if you could share the reported CC50 at 120 h for C=CCNC(=O)[C@@H](NC(=O)[C@@](O)(CCCN(Cc1ccc(Br)cc1)NC(=O)[C@@H](NC(=O)OC)C(C)(C)C)Cc1ccc(Br)cc1)C(C)C .
Output: 22

* * *

# collection of Ki values tested on Protease (Human immunodeficiency virus 1)
# Sequence (Q9YQ12 whole entry): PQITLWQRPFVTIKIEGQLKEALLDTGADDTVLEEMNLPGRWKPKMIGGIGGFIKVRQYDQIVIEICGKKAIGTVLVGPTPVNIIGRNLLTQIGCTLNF
measure name: Ki (nM)

Study these solved cases before continuing.
C=CCNC(=O)[C@@H](NC(=O)[C@@](O)(CCCN(Cc1ccc(Br)cc1)NC(=O)[C@@H](NC(=O)OC)C(C)(C)C)Cc1ccc(CC=C)cc1)C(C)C :: 30
C=CCNC(=O)[C@@H](NC(=O)[C@@](O)(CCCN(Cc1ccc(Br)cc1)NC(=O)[C@@H](NC(=O)OC)C(C)(C)C)Cc1ccc(Br)cc1)C(C)C :: 11

(P) C=CCNC(=O)[C@@H](NC(=O)[C@](O)(CCCN(Cc1ccc(Br)cc1)NC(=O)[C@@H](NC(=O)OC)C(C)(C)C)Cc1ccc(Br)cc1)C(C)C
(Q) C=CCNC(=O)[C@@H](NC(=O)[C@@](O)(CCCN(Cc1ccc(Br)cc1)NC(=O)[C@@H](NC(=O)OC)C(C)(C)C)Cc1ccc(C=C)cc1)C(C)C
Input: Between P and Q , which one has the lower reported Ki value? Pick one and reply with its label.
Output: Q
(Q: 15 nM, P: 1000 nM)

(a) COC(=O)N[C@H](C(=O)NN(CCC[C@@]1(O)Cc2ccc(cc2)/C=C\CNC(=O)[C@H](C(C)(C)C)NC1=O)Cc1ccc(Br)cc1)C(C)(C)C
(b) C=CCNC(=O)[C@@H](NC(=O)[C@](O)(CCCN(Cc1ccc(Br)cc1)NC(=O)[C@@H](NC(=O)OC)C(C)(C)C)Cc1ccc(Br)cc1)C(C)(C)C
Input: Between the entries labelled a and b , which has a larger Ki value on record? In your reply, give the label of the chosen option.
Output: b
(b: 980 nM, a: 5 nM)

* * *

Test: Cytotoxicity against human MT4 cells after 5 days by XTT assay
Type: cell-based
measure name: CC50 at 120 h (µM)
Give your result in µM as a bare value.

Answered examples (2):
C=CCNC(=O)[C@@H](NC(=O)[C@](O)(CCCN(Cc1ccc(Br)cc1)NC(=O)[C@@H](NC(=O)OC)C(C)(C)C)Cc1ccc(Br)cc1)C(C)(C)C :: 21
COC(=O)N[C@H](C(=O)NN(CCC[C@@]1(O)Cc2ccc(cc2)/C=C\CNC(=O)[C@H](C(C)(C)C)NC1=O)Cc1ccc(Br)cc1)C(C)(C)C :: 40

Now examine the next entry.
Input: I have this compound here, C=CCNC(=O)[C@@H](NC(=O)[C@@](O)(CCCN(Cc1ccc(Br)cc1)NC(=O)[C@@H](NC(=O)OC)C(C)(C)C)Cc1ccc(CC=C)cc1)C(C)C , and I need its recorded CC50 at 120 h.
Output: 24

* * *

Test: Cytotoxicity against human MT4 cells after 5 days by XTT assay
Type: cell-based
The entries below are paired with their reported CC50 at 120 h.

The examples below pair each entry with its known result.
COC(=O)N[C@H](C(=O)NN(CCC[C@@]1(O)Cc2ccc(cc2)C/C=C\CNC(=O)[C@H](C(C)C)NC1=O)Cc1ccc(Br)cc1)C(C)(C)C :: > 50 µM
CNC(=O)[C@@H](NC(=O)[C@@](O)(CCCN(Cc1ccc(Br)cc1)NC(=O)[C@@H](NC(=O)OC)C(C)(C)C)Cc1ccccc1)C(C)C :: > 10 µM

Then there is this molecule:
Input: // returns reported CC50 at 120 h for input C=CCNC(=O)[C@@H](NC(=O)[C@@](O)(CCCN(Cc1ccc(Br)cc1)NC(=O)[C@@H](NC(=O)OC)C(C)(C)C)Cc1ccc(CC=C)cc1)C(C)(C)C
Output: > 50 µM

Source of measurements: ChEMBL document CHEMBL3085680
